TARGET_ENTITY: Retinoic acid receptor RXR-alpha (Homo sapiens, UniProt P19793)
Sequence (P19793 whole entry): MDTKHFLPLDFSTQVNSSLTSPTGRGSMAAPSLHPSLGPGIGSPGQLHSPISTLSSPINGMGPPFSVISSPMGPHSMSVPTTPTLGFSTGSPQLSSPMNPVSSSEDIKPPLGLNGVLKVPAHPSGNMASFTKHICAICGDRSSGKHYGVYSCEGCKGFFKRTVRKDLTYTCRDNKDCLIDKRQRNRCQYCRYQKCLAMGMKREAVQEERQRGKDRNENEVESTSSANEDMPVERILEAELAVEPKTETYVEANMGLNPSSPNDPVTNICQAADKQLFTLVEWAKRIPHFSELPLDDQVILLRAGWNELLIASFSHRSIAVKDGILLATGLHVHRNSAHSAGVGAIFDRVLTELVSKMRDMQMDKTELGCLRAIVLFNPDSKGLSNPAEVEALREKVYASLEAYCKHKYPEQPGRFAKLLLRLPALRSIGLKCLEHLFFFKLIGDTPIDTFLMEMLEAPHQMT
ASSAY_SUMMARY: Antagonist activity at human RXRalpha expressed in […] cells assessed as inhibition of 9-cis-retinoic acid-induced transactivation
Format: functional, cell-based, HEK293
PROPERTY: IC50 (nM)

Look over these answered cases.
- STRUCTURE_AS_SMILES: "CN1c2ccc(NS(=O)(=O)c3ccccc3C(F)(F)F)cc2N=C(c2ccc(C(=O)O)cc2)c2cc3c(cc21)C(C)(C)CCC3(C)C"
  UNIT_ABBREVIATION: "nM"
  IC50: 1400
- STRUCTURE_AS_SMILES: "CCNC(=O)Nc1ccc2c(c1)N=C(c1ccc(C(=O)O)cc1)c1cc3c(cc1N2C)C(C)(C)CCC3(C)C"
  UNIT_ABBREVIATION: "nM"
  IC50: 7300
- STRUCTURE_AS_SMILES: "CN1c2ccc(NS(=O)(=O)c3cccc(C(F)(F)F)c3)cc2N=C(c2ccc(C(=O)O)cc2)c2cc3c(cc21)C(C)(C)CCC3(C)C"
  UNIT_ABBREVIATION: "nM"
  IC50: 480

[P] CCN1c2ccc(NS(=O)(=O)c3ccc(F)cc3)cc2N=C(c2ccc(C(=O)O)cc2)c2cc3c(cc21)C(C)(C)CCC3(C)C
[Q] CN1c2ccc(NC(=O)NCc3ccccc3)cc2N=C(c2ccc(C(=O)O)cc2)c2cc3c(cc21)C(C)(C)CCC3(C)C
Query: Would you mind telling me which has the lower recorded IC50 between P and Q ? To answer, give the label that identifies your chosen option.
Response: P

* * *

ASSAY_SUMMARY: Volume of distribution at steady state in rat at 1 mg/kg, iv
Assay type: ADME, organism-based
Set-up: dose 1 mg/kg, route intravenous
RECORDED_CONDITIONS: in vivo, read-out: Vdss
PROPERTY: Vd (L/kg)

- STRUCTURE_AS_SMILES: "CCN1c2ccc(NS(=O)(=O)c3cccc(C(F)(F)F)c3)cc2N=C(c2ccc(C(=O)O)cc2)c2cc3c(cc21)C(C)(C)CCC3(C)C"
  Vd, L/kg: 1.2
- STRUCTURE_AS_SMILES: "CCCN1c2ccc(NS(=O)(=O)c3cccc(C(F)(F)F)c3)cc2N=C(c2ccc(C(=O)O)cc2)c2cc3c(cc21)C(C)(C)CCC3(C)C"
  Vd, L/kg: 1.1

* * *

TARGET_ENTITY: Retinoic acid receptor RXR-alpha (Homo sapiens, UniProt P19793)
ASSAY_SUMMARY: Antagonist activity at human RXRalpha expressed in […] cells assessed as inhibition of 9-cis-retinoic acid-induced transactivation
Type: functional, cell-based, HEK293
pIC50: −log10 of the molar value.
PROPERTY: pIC50

Look over these answered cases.
- STRUCTURE_AS_SMILES: "CC(C)C(=O)Nc1ccc2c(c1)N=C(c1ccc(C(=O)O)cc1)c1cc3c(cc1N2C)C(C)(C)CCC3(C)C"
  pIC50: 5.72
- STRUCTURE_AS_SMILES: "CN1c2ccc(NC(=O)C34CC5CC(CC(C5)C3)C4)cc2N=C(c2ccc(C(=O)O)cc2)c2cc3c(cc21)C(C)(C)CCC3(C)C"
  pIC50: 5.54
- STRUCTURE_AS_SMILES: "CN1c2ccc(NC(=O)c3ccc(F)cc3)cc2N=C(c2ccc(C(=O)O)cc2)c2cc3c(cc21)C(C)(C)CCC3(C)C"
  pIC50: 5.77
- STRUCTURE_AS_SMILES: "CN1c2ccc(NS(=O)(=O)c3cccc(F)c3)cc2N=C(c2ccc(C(=O)O)cc2)c2cc3c(cc21)C(C)(C)CCC3(C)C"
  pIC50: 5.92
- STRUCTURE_AS_SMILES: "CN1c2ccc(NS(=O)(=O)c3ccc(F)cc3)cc2N=C(c2ccc(C(=O)O)cc2)c2cc3c(cc21)C(C)(C)CCC3(C)C"
  pIC50: 6.72

[P] CCCCS(=O)(=O)Nc1ccc2c(c1)N=C(c1ccc(C(=O)O)cc1)c1cc3c(cc1N2C)C(C)(C)CCC3(C)C
[Q] CN1c2ccc(NS(=O)(=O)Cc3ccccc3)cc2N=C(c2ccc(C(=O)O)cc2)c2cc3c(cc21)C(C)(C)CCC3(C)C
Query: Would you mind telling me which has the lower recorded pIC50 between P and Q ? To answer, give the label that identifies your chosen option.
Response: Q
(Q: 6.00, P: 6.43)
